- MEASUREMENT TARGET: human androgen receptor (hAR) (Homo sapiens, UniProt P10275)
- Construct: made in house; host or cells: baculovirus/Sf9 insect cells (crude extract)
- Sequence (P10275 whole entry): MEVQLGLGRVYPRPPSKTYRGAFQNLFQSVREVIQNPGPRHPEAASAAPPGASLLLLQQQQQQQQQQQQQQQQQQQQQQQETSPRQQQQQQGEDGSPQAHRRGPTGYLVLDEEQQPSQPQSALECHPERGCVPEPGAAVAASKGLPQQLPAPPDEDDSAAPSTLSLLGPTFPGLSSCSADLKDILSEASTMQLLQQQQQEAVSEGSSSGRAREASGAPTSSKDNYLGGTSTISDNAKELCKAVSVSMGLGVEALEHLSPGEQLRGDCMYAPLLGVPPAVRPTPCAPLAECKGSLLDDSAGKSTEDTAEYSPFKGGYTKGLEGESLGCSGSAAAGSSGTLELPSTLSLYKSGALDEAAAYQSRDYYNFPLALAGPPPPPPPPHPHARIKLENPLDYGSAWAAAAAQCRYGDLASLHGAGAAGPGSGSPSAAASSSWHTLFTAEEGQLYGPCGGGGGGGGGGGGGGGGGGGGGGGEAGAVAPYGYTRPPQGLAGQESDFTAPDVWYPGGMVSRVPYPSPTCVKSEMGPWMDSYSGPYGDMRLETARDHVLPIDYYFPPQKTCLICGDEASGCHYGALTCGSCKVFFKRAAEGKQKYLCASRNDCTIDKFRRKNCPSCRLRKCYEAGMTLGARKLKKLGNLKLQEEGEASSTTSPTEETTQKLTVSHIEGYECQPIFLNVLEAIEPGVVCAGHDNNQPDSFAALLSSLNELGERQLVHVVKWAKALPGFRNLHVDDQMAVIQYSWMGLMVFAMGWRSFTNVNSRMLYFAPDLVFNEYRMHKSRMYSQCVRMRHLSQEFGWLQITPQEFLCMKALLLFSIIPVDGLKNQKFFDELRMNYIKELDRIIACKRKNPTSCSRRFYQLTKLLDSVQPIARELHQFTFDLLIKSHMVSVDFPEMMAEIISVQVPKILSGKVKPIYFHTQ
- ASSAY EXPLANATION: Competitive binding analysis on baculovirus/Sf9 generated hAR extracts with 3H-DHT tracer
- SETUP CONDITIONS: hAR extract, 1 nM 3H-DHT, one hour at 4° C; mean of multiple tests; read-out: AR Binding IC50
ENDPOINT: IC50 (µM)
Please give a number only; it is taken to be in µM.

Challenge: IC50 lookup needed for CCC[C@H](Oc1ccc(C#N)c(Cl)c1)C(=O)NCCc1ccc(O)cc1 [Example 105] , thanks.
Response given: 0.241

Challenge: IC50 lookup needed for CC(C)CC(Oc1ccc(C#N)c(C(F)(F)F)c1)C(=O)NC(C)c1ccc(O)cc1 (stereo not shown) [Example 69] , thanks.
Response given: 0.341

Challenge: IC50 lookup needed for CCCC(Oc1ccc(C#N)c(C(F)(F)F)c1)C(=O)NC(C)c1ccc(OC)cc1 (stereo not shown) [Example 113] , thanks.
Response given: 0.654

Challenge: IC50 lookup needed for CCCC(Oc1ccc(C#N)c(Cl)c1)C(=O)NCc1ccccc1 (stereo not shown) [Example 102] , thanks.
Response given: 0.125

Challenge: IC50 lookup needed for Cc1cccnc1CNC(=O)C(CC(C)C)Oc1ccc(C#N)c(C(F)(F)F)c1 (stereo not shown) [Example 20] , thanks.
Response given: 0.41

Challenge: IC50 lookup needed for CC(C)CC(Oc1ccc(C#N)c(C(F)(F)F)c1)C(=O)N[C@H](C)c1ccccc1 (stereo in doubt) [Example 122] , thanks.
Response given: 0.329

Challenge: IC50 lookup needed for CC(C)CC(Oc1ccc(C#N)c(C(F)(F)F)c1)C(=O)NCCCc1cccnc1 (stereo not shown) [Example 62] , thanks.
Response given: 0.192

Challenge: IC50 lookup needed for CCN(CCOC)C(=O)C(CC(C)C)Oc1ccc(C#N)c(C(F)(F)F)c1 (stereo not shown) [Example 86] , thanks.
Response given: 0.025

Challenge: IC50 lookup needed for CCCC(Oc1ccc(C#N)c(C(F)(F)F)c1)C(=O)NC(C)c1cccs1 (stereo not shown) [Example 17] , thanks.
Response given: 1

Challenge: IC50 lookup needed for CC(C)CC(Oc1ccc(C#N)c(C(F)(F)F)c1)C(=O)NCC1Cc2ccccc2CO1 (stereo not shown) [Example 27] , thanks.
Response given: 0.214

Challenge: IC50 lookup needed for CCOc1ccccc1CNC(=O)C(CC(C)C)Oc1ccc(C#N)c(C(F)(F)F)c1 (stereo not shown) [Example 36] , thanks.
Response given: 0.042

Challenge: IC50 lookup needed for CCCC(Oc1ccc(C#N)c(Cl)c1)C(=O)NCCc1ccc(O)cc1 (stereo not shown) [Example 103] , thanks.
Response given: 0.14

Challenge: IC50 lookup needed for CC(C)CC(Oc1ccc(C#N)c(C(F)(F)F)c1)C(=O)NCCOc1ccccc1 (stereo not shown) [Example 10] , thanks.
Response given: 0.091

Challenge: IC50 lookup needed for CC(C)CC(Oc1ccc(C#N)c(C(F)(F)F)c1)C(=O)NCc1ccc2c(c1)OCO2 (stereo not shown) [Example 24] , thanks.
Response given: 0.056

Challenge: IC50 lookup needed for COc1ccc(CNC(=O)C(CC(C)C)Oc2ccc(C#N)c(C(F)(F)F)c2)cn1 (stereo not shown) [Example 72] , thanks.
Response given: 0.082

Challenge: IC50 lookup needed for CCCC(Oc1ccc(C#N)c(C(F)(F)F)c1)C(=O)NCCOc1ccccc1 (stereo not shown) [Example 56] , thanks.
Response given: 0.157

Challenge: IC50 lookup needed for CCCC(Oc1ccc(C#N)c(C(F)(F)F)c1)C(=O)N[C@H](C)c1ccc(OC)cc1 (stereo in doubt) [Example 123] , thanks.
Response given: 0.653

Challenge: IC50 lookup needed for CC(C)CC(Oc1ccc(C#N)c(C(F)(F)F)c1)C(=O)NCc1cccnc1 (stereo not shown) [Example 19] , thanks.
Response given: 0.131

Challenge: IC50 lookup needed for CC(C)CC(Oc1ccc(C#N)c(C(F)(F)F)c1)C(=O)N[C@H](C)c1ccc(O)cc1 (stereo in doubt) [Example 117] , thanks.
Response given: 0.114

Challenge: IC50 lookup needed for CC(C)CC(Oc1ccc(C#N)c(C(F)(F)F)c1)C(=O)NCc1cccs1 (stereo not shown) [Example 12] , thanks.
Response given: 0.086

Challenge: IC50 lookup needed for CCCC(Oc1ccc(C#N)c(C(F)(F)F)c1)C(=O)NCc1ccc2nsnc2c1 (stereo not shown) [Example 31] , thanks.
Response given: 0.083

Challenge: IC50 lookup needed for COc1ccc(CNC(=O)C(CC(C)C)Oc2ccc(C#N)c(C(F)(F)F)c2)cc1 (stereo not shown) [Example 73] , thanks.
Response given: 0.092

Challenge: IC50 lookup needed for CCCC(Oc1ccc(C#N)c(C(F)(F)F)c1)C(=O)NCC1Cc2ccccc2CO1 (stereo not shown) [Example 32] , thanks.
Response given: 0.407

Challenge: IC50 lookup needed for CCCC(Oc1ccc(C#N)c(Cl)c1)C(=O)OCC (stereo not shown) [Example 99] , thanks.
Response given: 0.031

Challenge: IC50 lookup needed for CC(C)CC(Oc1ccc(C#N)c(C(F)(F)F)c1)C(=O)NC(C)c1cccs1 (stereo not shown) [Example 13] , thanks.
Response given: 0.24

Challenge: IC50 lookup needed for CCCC(Oc1ccc(C#N)c(C(F)(F)F)c1)C(=O)NCc1ccc(OC)cc1 (stereo not shown) [Example 46] , thanks.
Response given: 0.103

Challenge: IC50 lookup needed for COc1ccccc1CCNC(=O)C(CC(C)C)Oc1ccc(C#N)c(C(F)(F)F)c1 (stereo not shown) [Example 48] , thanks.
Response given: 0.123

Challenge: IC50 lookup needed for CC(C)CC(Oc1ccc(C#N)c(C(F)(F)F)c1)C(=O)NCc1ccncc1 (stereo not shown) [Example 16] , thanks.
Response given: 0.368

Challenge: IC50 lookup needed for CC(C)CC(Oc1ccc(C#N)c(C(F)(F)F)c1)C(=O)N[C@@H](C)c1ccccc1 (stereo in doubt) [Example 112] , thanks.
Response given: 0.329

Challenge: IC50 lookup needed for Cc1ccccc1CNC(=O)C(CC(C)C)Oc1ccc(C#N)c(C(F)(F)F)c1 (stereo not shown) [Example 38] , thanks.
Response given: 0.015

Challenge: IC50 lookup needed for CCCC(Oc1ccc(C#N)c(C(F)(F)F)c1)C(=O)N(Cc1ccccc1)C(C)C (stereo not shown) [Example 67] , thanks.
Response given: 0.44

Challenge: IC50 lookup needed for CSCCNC(=O)C(CC(C)C)Oc1ccc(C#N)c(C(F)(F)F)c1 (stereo not shown) [Example 83] , thanks.
Response given: 0.085

Challenge: IC50 lookup needed for CCCC(Oc1ccc(C#N)c(C(F)(F)F)c1)C(=O)NCc1cccc2ccccc12 (stereo not shown) [Example 77] , thanks.
Response given: 0.292

Challenge: IC50 lookup needed for CC(C)C(Oc1ccc(C#N)c(C(F)(F)F)c1)C(=O)NCc1ccccc1 (stereo not shown) [Example 92] , thanks.
Response given: 0.348

====

- MEASUREMENT TARGET: human androgen receptor (hAR) (Homo sapiens, UniProt P10275)
- Construct: made in house; host or cells: baculovirus/Sf9 insect cells (crude extract)
- ASSAY EXPLANATION: Competitive binding analysis on baculovirus/Sf9 generated hAR extracts with 3H-DHT tracer
- SETUP CONDITIONS: hAR extract, 1 nM 3H-DHT, one hour at 4° C; mean of multiple tests; read-out: AR Binding IC50
pIC50: −log10 of the molar value.
Decide using pIC50: a value greater than or equal to 7 is Yes, a smaller one is No.

Challenge: Could you please find out whether CCC(C)CNC(=O)C(CC(C)C)Oc1ccc(C#N)c(C(F)(F)F)c1 (stereo not drawn) has pIC50 that meets 7 or exceeds it?
Response given: No

Challenge: Could you please find out whether CCCC(Oc1ccc(C#N)c(C(F)(F)F)c1)C(=O)NCCc1cccc(OC)c1 (stereo not drawn) has pIC50 that meets 7 or exceeds it?
Response given: No

Challenge: Could you please find out whether CC(C)CC(Oc1ccc(C#N)c(C(F)(F)F)c1)C(=O)NCC(C)Oc1ccccc1 (stereo not drawn) has pIC50 that meets 7 or exceeds it?
Response given: Yes

Challenge: Could you please find out whether CC(C)CC(Oc1ccc(C#N)c(C(F)(F)F)c1)C(=O)NCc1ccco1 (stereo not drawn) has pIC50 that meets 7 or exceeds it?
Response given: No

Challenge: Could you please find out whether CCCC(Oc1ccc(C#N)c(C(F)(F)F)c1)C(=O)NC(C)Cc1ccsc1 (stereo not drawn) has pIC50 that meets 7 or exceeds it?
Response given: No

Challenge: Could you please find out whether CC(C)CCNC(=O)C(CC(C)C)Oc1ccc(C#N)c(C(F)(F)F)c1 (stereo not drawn) has pIC50 that meets 7 or exceeds it?
Response given: No

Challenge: Could you please find out whether CC(C)CNC(=O)C(CC(C)C)Oc1ccc(C#N)c(C(F)(F)F)c1 (stereo not drawn) has pIC50 that meets 7 or exceeds it?
Response given: Yes

Challenge: Could you please find out whether CCC[C@H](Oc1ccc(C#N)c(Cl)c1)C(=O)NCc1ccccc1 has pIC50 that meets 7 or exceeds it?
Response given: No
